Recorded values, source BigSolDB 2.1.

- details: in ethyl acetate, 318.15 K
property.measured: solubility (mole fraction)
Output: the number by itself.

Prompt: Query: solubility (mole fraction); subject: CC(=O)[C@H]1CC[C@H]2[C@@H]3CCC4=CC(=O)CC[C@]4(C)[C@H]3CC[C@]12C
Response: 0.0671

* * *

- details: in acetonitrile, 298.15 K
property.measured: solubility (mole fraction)
Output: the number by itself.

Prompt: Query: solubility (mole fraction); subject: CC(=O)[C@H]1CC[C@H]2[C@@H]3CCC4=CC(=O)CC[C@]4(C)[C@H]3CC[C@]12C
Response: 0.0235

* * *

- details: in toluene, 318.15 K
property.measured: solubility (mole fraction)
Output: the number by itself.

Prompt: Query: solubility (mole fraction); subject: CC(=O)[C@H]1CC[C@H]2[C@@H]3CCC4=CC(=O)CC[C@]4(C)[C@H]3CC[C@]12C
Response: 0.203

* * *

- details: in THF, 313.15 K
property.measured: solubility (mole fraction)
Output: the number by itself.

Prompt: Query: solubility (mole fraction); subject: CC(=O)[C@H]1CC[C@H]2[C@@H]3CCC4=CC(=O)CC[C@]4(C)[C@H]3CC[C@]12C
Response: 0.163

* * *

- details: in n-heptane, 293.15 K
property.measured: solubility (mole fraction)
Output: the number by itself.

Prompt: Query: solubility (mole fraction); subject: CC(=O)[C@H]1CC[C@H]2[C@@H]3CCC4=CC(=O)CC[C@]4(C)[C@H]3CC[C@]12C
Response: 0.000425

* * *

- details: in acetonitrile, 308.15 K
property.measured: solubility (mole fraction)

Prompt: Query: solubility (mole fraction); subject: CC(=O)[C@H]1CC[C@H]2[C@@H]3CCC4=CC(=O)CC[C@]4(C)[C@H]3CC[C@]12C
Response: 0.0396

* * *

- details: in n-propanol, 308.15 K
property.measured: solubility (mole fraction)
Output: the number by itself.

Prompt: Query: solubility (mole fraction); subject: CC(=O)[C@H]1CC[C@H]2[C@@H]3CCC4=CC(=O)CC[C@]4(C)[C@H]3CC[C@]12C
Response: 0.0294

* * *

- details: in acetonitrile, 283.15 K
property.measured: solubility (mole fraction)
Output: the number by itself.

Prompt: Query: solubility (mole fraction); subject: CC(=O)[C@H]1CC[C@H]2[C@@H]3CCC4=CC(=O)CC[C@]4(C)[C@H]3CC[C@]12C
Response: 0.0101

* * *

- details: in n-propanol, 318.15 K
property.measured: solubility (mole fraction)
Output: the number by itself.

Prompt: Query: solubility (mole fraction); subject: CC(=O)[C@H]1CC[C@H]2[C@@H]3CCC4=CC(=O)CC[C@]4(C)[C@H]3CC[C@]12C
Response: 0.0485

* * *

- details: in 1,4-dioxane, 308.15 K
property.measured: solubility (mole fraction)
Output: the number by itself.

Prompt: Query: solubility (mole fraction); subject: CC(=O)[C@H]1CC[C@H]2[C@@H]3CCC4=CC(=O)CC[C@]4(C)[C@H]3CC[C@]12C
Response: 0.117
